# System: SW-620 colon
# experiment_description: NCI tumour cell line growth inhibition, 48 h; in the data active = GI50 below about 0.43 µM; inactive = the rest
Outcome codes: active, inactive

• C#CCOc1cccc(Nc2ncnc3c(NC(=O)CCl)cccc23)c1 = inactive
• COC(=O)c1nc(-c2ccccc2)oc1S(=O)(=O)n1nc(C)cc1N = inactive
• CC1(C)N=C(N)N=C(N)N1c1ccc(CCCCc2ccc(S(=O)(=O)F)cc2)c(Cl)c1 = active
• Cc1c(C2=C(c3cn(C)c4ccccc34)C(=O)NC2=O)c2ccccc2n1C = inactive
• Cc1cccc(NC(=O)c2sc3nc4c(cc3c2N)CN(Cc2ccccc2)CC4)c1C = active
• CC(C)(C)c1ccc(C(=O)Nc2sc3c(c2C(N)=O)CCC(=O)C3)cc1 = active
• O=C(Oc1cccnc1)c1ccsc1Nc1ccnc(C(F)(F)F)c1 = inactive
• CCN1C(=O)N(CC)C2C1NN=c1s/c(=C3\C(=O)N(CCc4ccccc4)c4ccccc43)c(=O)n12 (stereo not drawn) = inactive

* * *

# Tested on: NCI-H522 lung
# experiment_description: NCI tumour cell line growth inhibition, 48 h
Documented TGI across a set of molecules
assay_endpoint: TGI

* Nc1ccc(CCN2CCN(CCCc3ccccc3)CC2)cc1 | > 100 µM
* COC(=O)c1cnn2c1n[n+]([O-])c1ccccc12 | > 100 µM
* OC(c1ccc(-c2ccccc2)cc1)C(F)(F)c1nc2ccccc2o1 (stereo not given) | > 100 µM
* Cc1nc(-c2ccc(N=Cc3ccc(N(CCOS(C)(=O)=O)CCOS(C)(=O)=O)cc3C)cc2)cs1 | > 100 µM
* COc1cc2c(cc1OC)C1(c3ccc(Cl)cc3)ON=C(c3ccccc3)N1CS2 (stereo not given) | > 100 µM
* N/N=C1\CC(=O)NC(=O)N1 | > 100 µM
* CCO/C=C1\N=C(c2ccccc2Br)OC1=O | > 100 µM
* COC(=O)c1c(OC(C)=O)ccc2c1c1c(OC(C)=O)c3ccccc3c(OC(C)=O)c1n2Cc1ccccc1 | 3.4 µM
* C/C=C(\C)c1cc(O)c(C)c2c1Oc1cc(O)c(Cl)c(C)c1C(=O)O2 | 51.3 µM
* COc1ccc(C=O)c(NC(=O)C(C)C)c1 | 46.3 µM
* CCOc1nc(N)nc(C)c1N=Nc1ccc(Cl)cc1 | > 100 µM
* O=C([CH-]C(=O)c1ccccc1)c1ccccc1.O=C([CH-]C(=O)c1ccccc1)c1ccccc1.[OH-].[OH-].[Ti+4] | 69.7 µM
* CCCc1ccc(NCc2cc(OC)c(OC)c(OC)c2)cc1 | 34.3 µM
* O=C1NC(=O)C(c2cccc(Cl)c2)=C1Nc1ccc(O)c(Cl)c1 | > 21 µM
* CC(C)(C)OC(=O)NCCC1CN(C(=O)c2ccccc2)c2ccccc21 (stereo not given) | 64.2 µM
* O[C@H]1[C@H](O)[C@@H](O)[C@@]2(O)C[C@@H](O)[C@@H]1N2 | > 100 µM
* O=[As](O)(O)c1ccc(N=Nc2ccc(O)cc2)cc1 | > 100 µM
* CCOC(=O)[C@H](Cc1ccc(O)cc1)N=C1[C@H]2CCC[C@]1(O)[C@@](C)([N+](=O)[O-])C2 | > 100 µM
* COc1cc2nc(NCCCCCNC(=O)c3ccco3)nc(N)c2cc1OC | 96.4 µM
* C[C@H]1C=C2[C@@H]3CC(C)(C(=O)O)CC[C@]3(C)CC[C@]2(C)[C@]2(C)CC[C@H]3C(C)(C)[C@@H](OC(=O)c4cccc5c(=O)c6ccccc6[nH]c45)CC[C@]3(C)[C@@H]12 (stereo not given in full) | > 100 µM
* COc1ccc(C2[C@@H](Cl)C(=O)N2c2cc(OC)c(OC)c(OC)c2)cc1Cl (stereo not given in full) | 0.296 µM
* CC(C)(CC(O)C#N)/[N+]([O-])=[N+](\[O-])C(C)(C)CC(O)C#N (stereo not given) | 35.4 µM
* Brc1c(C#CCC2CCCCC2)ccc(C#CCC2CCCCC2)c1Br | > 100 µM
* O=C(CSC1=NCCN1)Nc1ccccc1 | 38.7 µM
* Cc1ccc(NC(=O)c2ccccc2C(=O)O)cc1C | > 100 µM
* CC(NC(C)(C)C)C(=O)c1cccc(Cl)c1 (stereo not given) | > 100 µM
* CCNC1=C(NC(=O)CC)C(=O)c2ccccc2C1=O | > 100 µM
* CN1CCN(CC(O)COc2c(Br)c(Br)c(Br)c3c2OC(C)(C)C3)CC1 (stereo not given) | 28.5 µM
* C[CH2][Pb]([CH2]C)([CH2]C)[O]C(=O)c1ccc2ccccc2n1 | > 10 µM
* CC(C)(C)c1ccc(C(=O)Nc2sc3c(c2C(N)=O)CCC(=O)C3)cc1 | 1.91 µM
* CC(C)=C/C=C1/CS(=O)(=O)C=C1C | > 100 µM
* CCC(c1c[nH]c2ccc(Br)cc12)c1c[nH]c2ccc(Br)cc12 | 18.1 µM
* CC1(O)OC(=O)C2=C1CCC1C2CCC2(C)C(O)CCC12 (stereo not given) | > 100 µM
* COc1ccc(-n2cnc3c(NC(CCSC)C(=O)O)ncnc32)cc1 (stereo not given) | > 100 µM
* O=C(O)CNC(=O)c1c2ccccc2nc2ccccc12 | > 100 µM
* COC(=O)C1=C(C)N2[C@H](C(=O)O)CO[C@@]2(C)[C@H](C(=O)OC)[C@H]1c1cccc([N+](=O)[O-])c1 | > 100 µM
* C=C1CCC2[C@@H](CCC3[C@]2(C)CCC[C@]3(C)C(=O)OC)[C@@H]1CC=O (stereo not given in full) | > 100 µM
* Fc1cccc(C2SCc3nc4ccccc4n32)c1F (stereo not given) | > 100 µM
* CNc1ccc(N)cc1C(=O)N1CCC[C@H]1CO | > 100 µM
* Nc1ccccc1SCc1csc(-c2ccc(Cl)cc2)n1 | 31.1 µM
